# assay-method-text: Kinematic viscosity of surfactant base formulation with added agent (calibrated Cannon viscometers)
# Format: physicochemical
# conditions: 4% agent in base formulation, 40 C
outcome-measure: Kinematic viscosity at 40 C., 4% oil (cSt)
One number for each entry, in cSt.

Form field Kinematic viscosity at 40 C., 4% oil, entry CCCCCCCCCCCCCCCC [Hexadecane] : 18.1

// recorded Kinematic viscosity at 40 C., 4% oil for CC(=O)CCc1ccc(O)cc1 [Raspberry Ketone] : 107.4

Lab note: CCCCCCCCCCCCCC(=O)OC(C)C [Iso Propyl Myristate] gave Kinematic viscosity at 40 C., 4% oil of 53.7

Record Kinematic viscosity at 40 C., 4% oil for all entries; do not skip any.
1. CC1=CC=C(C(C)C)CC1 [alpha-Terpinene]
2. CCO [Ethanol]
3. CC(CC=O)CCCC(C)(C)O (stereo not drawn) [Hydroxycitronellal]

[96.0, 111.0, 145.4]

Data provenance is patent US20160310389A1.
